Tested on: picornaviruses (CVB1, HRV-A2, HRV-A23, EV-68)
assay_details: Anti-picornavirus cytopathic effect (CPE) reduction assay on HeLa H1 cells
Type: cell-based
conditions: Enterovirus B, HeLa H1, 48 h, HeLa H1 cells, 48 h, category from averaging the EC50 values from four picornaviruses (CVB1, HRV-A2, HRV-A23, EV68); read-out: EC50 values of the compounds determined in the anti-picornavirus assay
pEC50: −log10 of the molar value.
observable: pEC50

Cn1nccc1CNC(=O)C(=O)[C@H]1CCC(=O)N1Cc1ccccc1
5.00 to 6.00
C[C@@H]1CC(=O)N(Cc2ccccc2)[C@H]1C(=O)C(=O)NC1CC1 (single isomer, unassigned)
> 6.00
CC(C)CC(=O)N1CC(NC(=O)C(=O)[C@H]2CCC(=O)N2Cc2ccccc2)C1
5.00 to 6.00
CC(C)NC(=O)C(=O)C(C)N(C=O)Cc1ccccc1 (centres unmarked)
5.00 to 6.00
CC(C(=O)C(=O)NCC(F)(F)F)N(C=O)C1CCCCC1 (centres unmarked)
5.00 to 6.00
CC(C)CC(C(=O)C(=O)NCC1CC1)N(C=O)C[C@H]1CCOC1 (some centres unmarked)
5.00 to 6.00
CC(C)NC(=O)C(=O)[C@H]1CCC(=O)N1Cc1ccccc1
> 6.00
CC(OCC1CCOCC1)C(=O)C(=O)NCC1CC1 (centres unmarked)
5.00 to 6.00
N#CC1CC(NC(=O)C(=O)[C@H]2CCC(=O)N2Cc2ccccc2)C1 (some centres unmarked)
5.00 to 6.00
CC(NC(=O)C1CCC(F)(F)CC1)C(=O)C(=O)NCC1CC1 (centres unmarked)
< 5.00
CC[C@@H](C)NC(=O)C(=O)C(C)N(C=O)c1ccccc1OC (some centres unmarked)
5.00 to 6.00
COc1ccccc1N(C=O)C(C)C(=O)C(=O)N[C@@H](C)C(C)C (some centres unmarked)
> 6.00
CC(OC1CCCCC1)C(=O)C(=O)NCC1CCCC1 (centres unmarked)
> 6.00
COc1ccccc1S(=O)(=O)NC(C)C(=O)C(=O)NCC1CC1 (centres unmarked)
5.00 to 6.00
CC(C)N(C=O)C(C)C(=O)C(=O)NCC1CCCCC1 (centres unmarked)
5.00 to 6.00
CC(C)C(C(=O)C(N)=O)N(C=O)Cc1ccccc1 (centres unmarked)
< 5.00
O=CN(Cc1ccccc1)C(C(=O)C(=O)NCC1CC1)C1CC1 (centres unmarked)
> 6.00
CCCC(C(=O)C(=O)NCC1CC1)N(C=O)CC1CCOCC1 (centres unmarked)
5.00 to 6.00
CC(NC(=O)c1cccc(Cl)c1)C(=O)C(=O)NCC1CC1 (centres unmarked)
5.00 to 6.00
COc1ccccc1CNC(=O)C(=O)C(C)N(C=O)c1ccccc1OC (centres unmarked)
5.00 to 6.00
N#Cc1ccc(CN2C(=O)CCC2C(=O)C(=O)NCC2CC2)cc1 (centres unmarked)
5.00 to 6.00
COc1ccccc1N(C=O)C(C)C(=O)C(=O)NCc1ccc(Cl)cc1 (centres unmarked)
> 6.00
CC(C(=O)C(=O)NCC1CCCCC1)N(C=O)c1cc[nH]c(=O)c1 (centres unmarked)
< 5.00
O=CN(Cc1ccccc1)C(C(=O)C(=O)NCC1CC1)C1CCOCC1 (centres unmarked)
5.00 to 6.00
COc1ccccc1N(C=O)C(C)C(=O)C(=O)NCc1cc(F)cc(Cl)c1 (centres unmarked)
> 6.00
CCCC(NC(=O)CN1CCN(C)CC1)C(=O)C(=O)NCC1CCCCC1 (centres unmarked)
< 5.00
CCCNC(=O)C(=O)[C@H]1CCC(=O)N1Cc1ccccc1
> 6.00
CC(C(=O)C(=O)NCc1cccc(Cl)c1)N(C=O)CC1CCCCC1 (centres unmarked)
> 6.00
O=C(NC1CN(C(=O)C2CCC2)C1)C(=O)[C@H]1CCC(=O)N1Cc1ccccc1
5.00 to 6.00
CC(C)CC(C(=O)C(=O)NCC1CC1)N(C=O)C[C@@H]1CCOC1 (some centres unmarked)
5.00 to 6.00
COc1cc(F)ccc1N(C=O)C(C)C(=O)C(=O)NCc1cccc(Cl)c1 (centres unmarked)
> 6.00
O=C(NCCC1CC1)C(=O)C1CCC(=O)N1Cc1ccccc1 (centres unmarked)
> 6.00
CC(C(=O)C(=O)NCC1CC1)N(C=O)CC1CCCCC1 (centres unmarked)
> 6.00
COc1ccccc1N(C=O)C(C)C(=O)C(=O)NC(C)C (centres unmarked)
5.00 to 6.00
CC(OC1CCCCC1)C(=O)C(=O)NCC1CCC1 (centres unmarked)
> 6.00
CC(C(=O)C(=O)NCC1CC1)N(C)C(=O)C1CCCCC1 (centres unmarked)
5.00 to 6.00
COc1ccccc1N(C=O)C(C)C(=O)C(=O)NCc1cccc(Cl)c1 (centres unmarked)
> 6.00
CCNC(=O)C(=O)[C@H]1CCC(=O)N1Cc1ccc(Cl)cc1
> 6.00
O=C(NC1CCCC1)C(=O)C1CCC(=O)N1CC1CC1 (centres unmarked)
5.00 to 6.00
CC(C)C(OCC1CCOCC1)C(=O)C(=O)NCC1CC1 (centres unmarked)
< 5.00
CC(C)(C#N)CNC(=O)C(=O)[C@H]1CCC(=O)N1Cc1ccccc1
5.00 to 6.00

----------
Test system: picornaviruses (CVB1, HRV-A2, HRV-A23, EV-68)
assay_details: Anti-picornavirus cytopathic effect (CPE) reduction assay on HeLa H1 cells
Format: cell-based
conditions: Enterovirus B, HeLa H1, 48 h, HeLa H1 cells, 48 h, category from averaging the EC50 values from four picornaviruses (CVB1, HRV-A2, HRV-A23, EV68); read-out: EC50 values of the compounds determined in the anti-picornavirus assay
pEC50: −log10 of the molar value.
Recorded pEC50 for the following molecules
observable: pEC50

O=C(NCCCc1ccncc1)C(=O)C1CCC(=O)N1Cc1ccccc1 (stereo not shown) [FP 228]
5.00 to 6.00
COCCC(C(=O)C(=O)NCC1CC1)N(C=O)Cc1ccccc1 (stereo not shown) [FP 70]
5.00 to 6.00
Cc1noc(CNC(=O)C(=O)[C@H]2CCC(=O)N2Cc2ccccc2)n1 [FP 287]
5.00 to 6.00
CC(C)CC(C(=O)C(=O)NCC1CC1)N(C=O)CC1CCOC1 (stereo not shown) [FP 73]
5.00 to 6.00
CC(C)C(=O)N(C)C(C)C(=O)C(=O)NCC1CC1 (stereo not shown) [FP 151]
< 5.00
O=C(NC12CC(C1)C2)C(=O)[C@H]1CCC(=O)N1Cc1ccccc1 [FP 291]
> 6.00
CCC(C(=O)C(=O)NCc1cccc(Cl)c1)N(C=O)c1ccccc1OC (stereo not shown) [FP 12]
5.00 to 6.00
CC(C(=O)C(=O)NCC1CCC1)N(C=O)Cc1ccccc1 (stereo not shown) [FP 201]
> 6.00
CCNC(=O)C(=O)C1CCC(=O)N1Cc1ccc(C)s1 (stereo not shown) [FP 278]
5.00 to 6.00
Cc1cc(CNC(=O)C(=O)[C@H]2CCC(=O)N2Cc2ccccc2)no1 [FP 289]
> 6.00
CC(C)CC(C(=O)C(=O)NCC1CC1)N(C=O)CC1CCOCC1 (stereo not shown) [FP 63]
> 6.00
CCC(C(=O)C(=O)NCC1CCCCC1)N(C=O)C1CCCCC1 (stereo not shown) [FP 60]
5.00 to 6.00
COc1ccccc1N(C=O)C(C)C(=O)C(=O)NCc1ccc(F)c(Cl)c1 (stereo not shown) [FP 93]
> 6.00
CC(C(=O)C(=O)NCC1CCCCC1)N(C)C(=O)C1CC1 (stereo not shown) [FP 146]
5.00 to 6.00
CC(C)OCCCNC(=O)C(=O)[C@H]1CCC(=O)N1Cc1ccccc1 [FP 301]
> 6.00
O=C(NCC1CC1)C(=O)C1CCC(=O)N1Cc1ccc(F)cc1 (stereo not shown) [FP 241]
> 6.00
COc1cccc(Cl)c1C(=O)NC(C)C(=O)C(=O)NCC1CC1 (stereo not shown) [FP 212]
5.00 to 6.00
O=C(N[C@H]1CCCC[C@H]1O)C(=O)[C@H]1CCC(=O)N1Cc1ccccc1 (single isomer, unassigned) [FP 273]
5.00 to 6.00
CC[C@H](C)NC(=O)C(=O)C(C)N(C=O)c1ccccc1OC (stereo partly shown) [FP 106]
5.00 to 6.00
CC(C)CC(C(=O)C(N)=O)N(C=O)Cc1ccccc1 (stereo not shown) [FP 199]
< 5.00
CC(C)SCCNC(=O)C(=O)C1CCC(=O)N1Cc1ccc(Cl)cc1 (stereo not shown) [FP 257]
> 6.00
CC(C)[C@@H](C(=O)C(=O)NCC1CC1)N(C=O)CC(C)(C)C (single isomer, unassigned) [FP 33]
5.00 to 6.00
CC(NC(=O)c1ccccc1)C(=O)C(=O)NCC1CCC1 (stereo not shown) [FP 181]
5.00 to 6.00
CC(C)C(=O)NCCNC(=O)C(=O)[C@H]1CCC(=O)N1Cc1ccccc1 [FP 331]
5.00 to 6.00
O=C(NCc1ccccn1)C(=O)C1CCC(=O)N1Cc1ccccc1 (stereo not shown) [FP 230]
< 5.00
CCC(NS(=O)(=O)c1ccccc1)C(=O)C(=O)NCC1CC1 (stereo not shown) [FP 216]
5.00 to 6.00
O=CN(CC1CCOCC1)C(CCc1ccccc1)C(=O)C(=O)NCC1CC1 (stereo not shown) [FP 68]
> 6.00
CC(C)C(C(=O)C(=O)NCC1CC1)N(C=O)CC1CCOCC1 (stereo not shown) [FP 34]
5.00 to 6.00
CC(C)CNC(=O)C(=O)C(C)OC1CCCCC1 (stereo not shown) [FP 124]
> 6.00
CC(C(=O)C(=O)NCc1cccc(Cl)c1)N(C)C(=O)c1ccccc1 (stereo not shown) [FP 160]
5.00 to 6.00
CC(C)CNC(=O)C(=O)C(C)N(C=O)CC1CC1 (stereo not shown) [FP 16]
5.00 to 6.00
CCCC(=O)N(c1ccccc1OC)C(C)C(=O)C(=O)NCc1cccc(Cl)c1 (stereo not shown) [FP 143]
5.00 to 6.00
O=C(NC1CC1)C(=O)C1CCC(=O)N1Cc1cccc(Cl)c1 (stereo not shown) [FP 240]
5.00 to 6.00
CC(C)CN(C=O)C(C(=O)C(=O)NCC1CC1)C(C)C (stereo not shown) [FP 30]
5.00 to 6.00
COCC(=O)N(c1ccccc1OC)C(C)C(=O)C(=O)NCc1cccc(Cl)c1 (stereo not shown) [FP 175]
5.00 to 6.00
CC(C)C(C(=O)C(=O)NCC1CC1)N(C=O)CC(C)(C)C (stereo not shown) [FP 31]
5.00 to 6.00
O=C(N[C@@H]1CCCCNC1=O)C(=O)[C@H]1CCC(=O)N1Cc1ccccc1 [FP 300]
5.00 to 6.00
O=C(NCC1CC1)C(=O)C1CCC(=O)N1CC1CCCC1 (stereo not shown) [FP 280]
> 6.00
CC(OC1CCCCC1)C(=O)C(=O)NCC1CC1 (stereo not shown) [FP 120]
> 6.00
Cc1cccc(C(=O)NC(C)C(=O)C(=O)NCC2CC2)c1 (stereo not shown) [FP 171]
< 5.00
